assay: Cell viability assay (MTT), PC12 neuronal cell line; type: cell-based; conditions: rat, PC12 cells; 400 and 500 μM, 7 days
Quantity: viability at 7 days

{"columns": ["Structure Notation", "Quantity", "Result"],
 "data": [
  ["O=C(Cc1ccc2ccccc2c1)N[C@@H](Cc1ccccc1)C(=O)N[C@@H](Cc1ccccc1)C(=O)O", "viability at 7 days", "> 60%"]
]}
